Entry source: patent US20220324835A1

Tested on: primary human NK cells
EXPERIMENT_NOTES: NK cell activation assessed by cytokine secretion (coculture with K562 NucRed target cells)
Format: cell-based
CONDITION_PARAMETERS: K562, NK cells cocultured with K562 NucRed, 1:1 E/T, 0.625 μM compound, read-out: TNFα secretion, fold change over baseline
Text: Peripheral blood mononuclear cells (PBMC) were obtained either: 1) by using Ficoll-Paque™ (GE Healthcare) for separation of peripheral blood hematopoietic cells from buffy coats of healthy human donors; or 2) directly from LeukoPak donations. […] Cell free supernatants were collected and analyzed for cytokine secretion (e.g. TNFα, IFNγ, or MIP1β) by ELISA or Luminex multiplex kits following the manufacturer's protocol. […] Readouts were reported as fold change over baseline. […]
ATTRIBUTE_MEASURED: fold induction at 0.625 µM

Example cases with answers are listed next.
>>> reading("Cn1cnnc1C(F)(F)[C@](C)(F)c1cccc(N2Cc3c(cc(CN4CC[C@@H](C#N)C4)cc3C(F)(F)F)C2=O)c1")
"1.01 to 2"
>>> reading("C[C@H](Cc1nncn1C)c1cccc(N2Cc3c(cc(CN4CC[C@H](F)C4)cc3C(F)(F)F)C2=O)c1")
"2.01 to 5"
>>> reading("Cn1cnnc1CC1(c2cccc(N3Cc4c(cc(CN5CC[C@H](C#N)C5)cc4C(F)(F)F)C3=O)c2)COC1")
"1.01 to 2"

Endpoint output: fold induction at 0.625 µM of `Cn1cnnc1CC1(c2cccc(NC(=O)c3cc(CN4CCC5(CC5)C4)cc(C4CC4)n3)c2)COC1` . Value?
> 5
